# measurement.target: pooled human IgG (human IgG1, 2, 3 and 4)
observation.type: Enzyme Activity Endpoint Assay (purified): IgG (ng/µL)

protein="PRT-657 (protein) MQITSVWTKGVTPLTPEQFRYNNEDVIHAPYLAHQGWYDITKAFDGKDNLLCGAATAGNMLHWWFDQNKTEIEAYLSKHPEKQKIIFNNQELFDLREAINTKDSQTDSKLFNYFRDKAFPNLSARQLGVMPDLVLDMFINGYYLNVFKTQSTDVNRPYQDKDKRGGIFDAVFTRGDQTTLLTARHDLKNKGLNDISTIIKQELTEGRALALSHTYANVSISHVINLWGADFNAEGNLEAIYVTDSDANASIGMKKYFVGINAHGHVAISAKKIEGENIGAQVLGLFTLSSGKDIWQKLSLEHHHHHH" reported_measurement=0
protein="PRT-497 (protein) MVTSVWTKGVTPPTDFRKIVDGNIAYYHAPYKAGQGWYDITKTFNGKDDLLCGAATAGNMLHWWFDQNKEYIEAYLKKHPEKQKIMFGDQELLDVRKAINTKGSQKNSELFNYFRDKAFPNLSARRLGVMPDLVLDMFINGYYLNVTKTQTTDVNRTYQEKDKRGGIFDAVFTRGDQSKLLTSRHDFKEKGLKEISDLIKQELTEGKALGLSHTYANVRINHVINLWGADFDSDGNLKAIYVTDSDSNASIGMKKYFVGVNSAGKVAISAKEIKEDNIGAQVLGLFTLSTGQDIWNQTNLEHHHHHH" reported_measurement=0
protein="PRT-637 (protein) MQITSVWTKGVTPLTPEQFRYNNEDVIHAPYLAHQGWYDITKAFDGGDGLLCGAATAGNMLHWWFDQNKTEIEAYLSKHPEKQKIIFNNQELFDLKAAIDTKDSQTNSQLFNYFRDKAFPNLSARQKGVMPDLVLDMFINGYYLNVFKTQSTDVNRPYQDKDKRGGIFDAVFTRGDQTTLLTARHDLKNKGLNDISTIIKQELTEGRALALSHTYANVSISHVINLWGADFNAEGNLEAIYVTDSDAGNGIGMKKYFVGINAHGHVAISAKKIEGENIGAQVLGLFTLSSGKDIWQKLSLEHHHHHH" reported_measurement=464
protein="PRT-405 (protein) MVTSVWTKGVTPPADFTQGEDVFHAPYVANQGWYDITKTFNGKDDLLCGAATAGNMLHWWFDQNKEYIEAYLKKHPEKQKIMFGDQELLDVRKAINTKGSQKNSELFNYFRDKAFPNLSARRLGVMPDLVLDMFINGYYLNVTKTQTTDVNRTYQEKDKRGGIFDAVFTRGDQSKLLTSRHDFKEKGLKEISDLIKQELTEGKALGLSHTYANVRINHVINLWGADFDSDGNLKAIYVTDSDSNASIGMKKYGVGVNSAGKVAISAKEIKEDNIGAQVLGLFTLSTGQDIWNQTN" reported_measurement=406

Values were extracted from patent US20250027068.
